Assayed target: benzodiazepine site of the GABAA/BZ/chloride channel complex (rat brain GBR enriched synaptosomal preparation)
Assay summary: Enhancement of [3H]-Flunitrazepam binding to the benzodiazepine site in rat brain synaptosomal membranes
Measurement conditions: enhancement of 1 nM [3H]-Flunitrazepam binding, 40 μg rat brain synaptosomal membrane, 30° C., 30 min
Items are presented alongside their recorded EC50.
Answer in nM, number only, no unit symbol.

COc1ccc(C#CC(O)[C@H]2CC[C@H]3[C@@H]4CC[C@H]5C[C@H](O)CC[C@]5(C)[C@H]4CC[C@]23C)cc1 (single isomer, unassigned) :: 36.3
C#CC(OC)[C@H]1CC[C@H]2[C@@H]3CC[C@H]4C[C@H](O)CC[C@]4(C)[C@H]3CC[C@]12C (mixture of isomers) [17β-(1-methoxy-2-propynyl)-5α-androstan-3α-ol (mixture of C-20 epimers)] :: 4.48
CC(=O)[C@H]1CC[C@H]2[C@@H]3CC[C@H]4C[C@H](O)CC[C@]4(C)[C@H]3CC[C@]12C [3α-hydroxy-5α-pregnan-20-one, reference compound] :: 212
C=C=CC(O)[C@H]1CC[C@H]2[C@@H]3CC[C@H]4CC(O)CC[C@]4(C)[C@H]3CC[C@]12C (mixture of isomers) [17β-(1-hydroxy-2,3-butadienyl)-5α-androstane-3ol (mixture of C-20 epimers)] :: 5.9
COC(=O)C#C[C@H]1CC[C@H]2[C@@H]3CC[C@H]4C[C@H](O)CC[C@]4(C)[C@H]3CC[C@]12C :: 515

Qu. # query: EC50 of entry C[C@]12CC[C@@H](O)C[C@@H]1CC[C@@H]1[C@@H]2CC[C@]2(C)[C@@H](C#CBr)CC[C@@H]12 [17β-(2-bromoethynyl)-5α-androstane-3α-ol]
Ans. 326

Qu. And then C[C@]12CC[C@@H](N=[N+]=[N-])C[C@@H]1CC[C@@H]1[C@@H]2CC[C@]2(C)[C@@H](C(=O)CN=[N+]=[N-])CC[C@@H]12 [3α,21-di-azido-5α-pregnan-20-one] , what is it?
Ans. 314

Qu. Also check "Cc1ccc(C#C[C@H]2CC[C@H]3[C@@H]4CC[C@H]5C[C@H](O)CC[C@]5(C)[C@H]4CC[C@]23C)cc1"
Ans. 2380

----------
Measurement label: melting point

Below, each entry is followed by its recorded melting point result.
COC(=O)C#C[C@H]1CC[C@H]2[C@@H]3CC[C@H]4C[C@H](O)CC[C@]4(C)[C@H]3CC[C@]12C :: 135 to 137 °C
CC(O)C#C[C@H]1CC[C@H]2[C@@H]3CC[C@H]4C[C@H](O)CC[C@]4(C)[C@H]3CC[C@]12C (some centres unmarked) :: 169 to 171 °C
C[C@]12CC[C@@H](O)C[C@@H]1CC[C@@H]1[C@@H]2CC[C@]2(C)[C@@H](C#CBr)CC[C@@H]12 :: 165 to 167 °C
CC(=O)C#C[C@H]1CC[C@H]2[C@@H]3CC[C@H]4C[C@H](O)CC[C@]4(C)[C@H]3CC[C@]12C :: 148 to 150 °C

Qu. Which value of melting point has been reported for C#CC(OC)[C@H]1CC[C@H]2[C@@H]3CC[C@H]4C[C@H](O)CC[C@]4(C)[C@H]3CC[C@]12C (mixture of isomers) [17β-(1-methoxy-2-propynyl)-5α-androstan-3α-ol (mixture of C-20 epimers)] in the records?
Ans. 161 to 163 °C
